Listing of entries alongside the reported pIC50.
# Target Or System: Neprilysin (Oryctolagus cuniculus)
# Sequence (P08049 whole entry): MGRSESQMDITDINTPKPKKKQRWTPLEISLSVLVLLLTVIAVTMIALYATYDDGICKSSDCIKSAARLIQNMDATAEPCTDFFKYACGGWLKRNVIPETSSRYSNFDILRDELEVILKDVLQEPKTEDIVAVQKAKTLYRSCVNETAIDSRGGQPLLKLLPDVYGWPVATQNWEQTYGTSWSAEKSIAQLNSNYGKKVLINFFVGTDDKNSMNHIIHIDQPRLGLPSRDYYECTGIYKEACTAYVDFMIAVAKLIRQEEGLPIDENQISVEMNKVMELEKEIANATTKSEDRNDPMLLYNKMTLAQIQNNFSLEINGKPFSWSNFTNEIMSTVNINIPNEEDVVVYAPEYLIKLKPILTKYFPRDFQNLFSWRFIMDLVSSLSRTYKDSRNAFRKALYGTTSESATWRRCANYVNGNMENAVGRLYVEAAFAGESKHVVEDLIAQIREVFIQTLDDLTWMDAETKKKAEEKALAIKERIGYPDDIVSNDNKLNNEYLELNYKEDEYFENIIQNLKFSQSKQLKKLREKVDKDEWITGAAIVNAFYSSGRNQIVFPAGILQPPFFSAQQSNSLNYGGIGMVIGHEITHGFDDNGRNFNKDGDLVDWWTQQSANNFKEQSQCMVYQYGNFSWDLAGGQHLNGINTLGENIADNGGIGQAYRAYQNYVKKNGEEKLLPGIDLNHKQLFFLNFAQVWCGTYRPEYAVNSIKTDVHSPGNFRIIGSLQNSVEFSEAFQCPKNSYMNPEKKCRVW
# Procedure Text: In vitro inhibitory activity against neutral endopeptidase (NEP)
Field pIC50 (float): negative decimal logarithm of the concentration in molar.

Take a look at these entries with their results.
O=C(N[C@@H](CSCc1ccccc1)C(=O)O)[C@@H](CS)Cc1ccccc1 = 7.72
CSC[C@@H](NC(=O)[C@@H](CS)Cc1ccccc1)C(=O)O = 8.82

Next molecule, pIC50 to be filled in.
Q: Please look up its pIC50: O=C(N[C@H](CSCCc1ccccc1)C(=O)O)[C@H](CS)Cc1ccccc1
A: 6.88

====

# Target Or System: UniProt P08049
# Procedure Text: In vitro inhibitory activity against neutral endopeptidase (NEP)
pIC50: −log10 of the molar value.
Property Name: pIC50

Solved cases (2 shown):
Cc1ccc(CSC[C@@H](NC(=O)[C@@H](CS)Cc2ccc3ccccc3c2)C(=O)O)cc1 = < 6.52
Cc1ccc(CSC[C@@H](NC(=O)[C@H](CS)Cc2ccccc2)C(N)=O)cc1 = < 6.52

Q: // query pIC50 value for entry CCCC(CS)C(=O)N[C@H](CSCC)C(=O)O (stereo partly drawn)
A: < 6.52

Where do these numbers come from? They come from ChEMBL document CHEMBL1127600.
